The values you see were collected from PubChem BioAssay (EPA / NIEHS).

- assay: ATG_SREBP_CIS: Attagene CIS-FACTORIAL HepG2 Assay for human Sterol Regulatory Element Binding (SREBP) (AID 2282962)
- details: HepG2 Attagene cis-factorial SREBP reporter, mRNA; actives raise or lower the signal
Activity calls are given as the source filed them. How the source made its calls: active means hit-call score of the fitted dose curve at least 0.9, where 1 is the maximum; inactive means score below 0.9.
Log the outcome using a class from active, inactive

Some entries whose results are on file:
[
  {
    "molecule": "Cc1ccc(C(C)(C)C)c(O)c1",
    "category label": "active"
  },
  {
    "molecule": "C#CC(O)C(CC)CCCC (stereo not given)",
    "category label": "inactive"
  },
  {
    "molecule": "CCCCCCCCCCCCCCCCO",
    "category label": "inactive"
  }
]

Query :: Any idea what this test logged for CC(C)COC(=O)CCCCC(=O)OCC(C)C ?
Result :: inactive

Query :: Any idea what this test logged for Oc1ccc(O)cc1 ?
Result :: inactive

Query :: Any idea what this test logged for Nc1nc(=S)c2[nH]cnc2[nH]1 ?
Result :: inactive
